Target: human IDO1 (Homo sapiens, UniProt P14902)
Sequence (P14902 whole entry): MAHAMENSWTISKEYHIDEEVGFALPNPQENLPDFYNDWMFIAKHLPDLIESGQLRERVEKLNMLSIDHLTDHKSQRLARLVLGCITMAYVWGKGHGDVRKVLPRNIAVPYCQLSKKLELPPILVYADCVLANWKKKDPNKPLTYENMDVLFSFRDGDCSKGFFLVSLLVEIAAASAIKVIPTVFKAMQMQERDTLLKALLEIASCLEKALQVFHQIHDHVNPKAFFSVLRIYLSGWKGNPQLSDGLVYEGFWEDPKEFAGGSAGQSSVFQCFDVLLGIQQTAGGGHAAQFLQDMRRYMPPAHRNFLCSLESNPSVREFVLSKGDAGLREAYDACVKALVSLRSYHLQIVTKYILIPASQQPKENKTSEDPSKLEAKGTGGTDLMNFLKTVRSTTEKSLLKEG
Assay: Assessment of human IDO-1 inhibitory activity in Hela cells (Interferon-gamma stimulated HeLa cells, Ehrlich reagent, absorbance 490 nm)
Assay type: cell-based
Set-up: endogenous in cells; host or cells: HeLa cells stimulated with interferon-gamma
Conditions: Hela Human IDO-1 cellular assay
pIC50: −log10 of the molar value.
metric: pIC50

CCCN(c1ccc([C@@H](CC)CC(=O)O)cc1NC(=O)Nc1ccc(Cl)cc1F)C1CCOCC1 (single isomer, unassigned) [Example 544]    > 8.30

Field: next compound
Entry COCC(CC(=O)O)c1ccc(N2CCOC[C@@H]2C(C)C)c(NC(=O)Nc2ccc(C#N)cc2)c1 (single isomer, unassigned) [Example 932] has what pIC50?
< 7.30

----------
// reported IC50 for each item listed
Molecular target: human IDO1 (Homo sapiens)
Assay: Assessment of human IDO-1 inhibitory activity in Hela cells (Interferon-gamma stimulated HeLa cells, Ehrlich reagent, absorbance 490 nm)
Assay type: cell-based
Set-up: endogenous in cells; host or cells: HeLa cells stimulated with interferon-gamma
Conditions: Hela Human IDO-1 cellular assay

Here's what some known entries look like.
CCOc1ccc(Nc2cc(C(COC)CC(=O)O)cc(F)c2N(CC(C)C)CC(C)C)cc1 (single isomer, unassigned) [Example 923]    < 50 nM
CCCN(c1ccc([C@@H](COC)CC(=O)O)cc1Nc1ccc(C#N)cc1)C1CCOCC1 (single isomer, unassigned) [Example 558]    < 5 nM
COCC(CC(=O)O)c1ccc(N(C)C2CCOCC2)c(NC(=O)Nc2ccc(Cl)cc2F)c1 (single isomer, unassigned) [Example 886]    > 50 nM
COCC(CC(=O)O)c1ccc(N2CCOC[C@H]2C(C)C)c(Nc2ccc(C#N)cc2)c1 (single isomer, unassigned) [Example 909]    < 50 nM
COCC(CC(=O)O)c1ccc(N(C)C2CCOCC2)c(Nc2ccc(C#N)c(F)c2)c1 (single isomer, unassigned) [Example 875]    < 50 nM

Field request: IC50 | item: CCCN(c1ccc([C@@H](CC)CC(=O)O)cc1Nc1ccc(OC)nc1)C1CCOCC1 (single isomer, unassigned) [Example 542]
< 5 nM

----------
Consider the following compounds and their measured IC50 readings.
Target: human IDO1 (Homo sapiens)
Test: Assessment of human IDO-1 inhibitory activity in HEK cells (human IDO1/HEK293 cells, kynurenine read-out with Ehrlich reagent, absorbance 490 nm)
Format: cell-based
Set-up: expressed in transfected cells
Details: HEK Human IDO-1 cellular assay

A selection of reference data follows.
CCOc1ncc(Nc2cc(C(C)CC(=O)O)ccc2N(CC(C)(C)O)C2CCCCC2)cn1 (single isomer, unassigned) [Example 50]    > 50 nM
CCC(CC(=O)O)c1cc(F)c(N(CC(C)C)CC(C)C)c(Nc2ccc(OCC3CC3)cc2)c1 (single isomer, unassigned)    < 50 nM

// switching to the query compound
Requested read-out: IC50. Entry: CCOc1ncc(Nc2cc([C@H](CC)CC(=O)O)ccc2N(CC(C)(C)O)C2CCOCC2)cn1 (single isomer, unassigned)
> 50 nM

----------
Below, each entry is listed alongside its reported IC50.
Target: human IDO1 (Homo sapiens, UniProt P14902)
Assay: Assessment of human IDO-1 inhibitory activity in Hela cells (Interferon-gamma stimulated HeLa cells, Ehrlich reagent, absorbance 490 nm)
Assay type: cell-based
Design: endogenous in cells; host or cells: HeLa cells stimulated with interferon-gamma
Settings: Hela Human IDO-1 cellular assay

CCOc1ncc(Nc2cc(C(CC)CC(=O)O)ccc2N2CCC(c3ccccc3)CC2)cn1 (single isomer, unassigned) [Example 47 Enantiomer 1]    < 5 nM
CC[C@@H](CC(=O)O)c1ccc(N(CC)C2CCOCC2)c(Nc2cnc(OC)cn2)c1 (single isomer, unassigned) [Example 464]    < 5 nM

Item under review: CCN(c1ccc([C@@H](COC)CC(=O)O)cc1Nc1cc(C)c(C#N)cn1)C1CCOCC1 (single isomer, unassigned) [Example 384] . Reported IC50?
> 50 nM

For CCCN(c1ccc(C(CC)CC(=O)O)cc1NC(=O)Nc1ccc(C)cc1)C1CCOCC1 (single isomer, unassigned) [Example 557 Enantiomer 1] , what is its reported IC50?
< 50 nM

IC50 for COCCN(c1ccc(C(COC)CC(=O)O)cc1Nc1ccc(Cl)cc1)C1CCOCC1 (single isomer, unassigned) [Example 256 Enantiomer 1] ?
< 5 nM

What IC50 value was documented for this molecule, CCN(c1ccc(C(CC(=O)O)C2CC2)cc1Nc1cnc(OC)nc1)C1CCOCC1 (single isomer, unassigned) [Example 35] ?
< 50 nM

Fill in the blank: the reported IC50 of CCc1ncc(Nc2cc([C@@H](CC)CC(=O)O)ccc2N(CC)C2CCOCC2)cn1 (single isomer, unassigned) [Example 1362] is ____.
< 5 nM

Requested field: IC50. Item: COCCN(c1ccc(C(C)(C)CC(=O)O)cc1Nc1ccc(Cl)cc1)C1CCOCC1 [Example 15]
< 5 nM

----------
Molecular target: human IDO1 (Homo sapiens, UniProt P14902)
Experiment: Assessment of human IDO-1 inhibitory activity in Hela cells (Interferon-gamma stimulated HeLa cells, Ehrlich reagent, absorbance 490 nm)
Format: cell-based
Set-up: endogenous in cells; host or cells: HeLa cells stimulated with interferon-gamma
Details: Hela Human IDO-1 cellular assay
pIC50: −log10 of the molar value.
metric: pIC50

CCN(c1ccc([C@@H](COC)CC(=O)O)cc1Nc1ncc(F)cn1)C1CCOCC1 (single isomer, unassigned) [Example 359]    < 7.30

Shifting focus to the compound that follows.
Fill blank: measured pIC50 of the compound CCOc1ccc(Nc2cc([C@@H](CC)CC(=O)O)ccc2N(CC)C2CCOCC2)nn1 (single isomer, unassigned) [Example 467] is ____.
> 7.30

----------
Target: human IDO1 (Homo sapiens)
Experiment: Assessment of human IDO-1 inhibitory activity in HEK cells (human IDO1/HEK293 cells, kynurenine read-out with Ehrlich reagent, absorbance 490 nm)
Format: cell-based
Parameters: expressed in transfected cells
Settings: HEK Human IDO-1 cellular assay
pIC50: −log10 of the molar value.
metric: pIC50

Param item = CC[C@H](CC(=O)O)c1ccc(N(CC(C)(C)O)C2CCCCC2)c(Nc2ccc(F)cc2)c1 (single isomer, unassigned) ; retrieve measured pIC50.
> 7.30

Find the recorded pIC50 belonging to COCC(CC(=O)O)c1cc(F)c(N(CC(C)C)CC(C)C)c(NC(=O)Nc2cncnc2)c1 (single isomer, unassigned) [Example 1183] and report it.
> 7.30

Consider the molecule CCN(c1ccc([C@@H](COC)CC(=O)O)cc1Nc1ccc2nc(C)sc2c1)C1CCOCC1 (single isomer, unassigned) and give its measured pIC50.
> 7.30

Given the entry CCc1ccc(Nc2cc(C(CC)CC(=O)O)ccc2N(CC(C)C)C2CCCCC2)cc1 (single isomer, unassigned) , report its measured pIC50.
> 8.30

Consider the molecule COCC(CC(=O)O)c1ccc(N(CC(C)C)C2CCCCC2)c(NC(=O)Nc2ccc(OC(F)(F)F)cc2)c1 (single isomer, unassigned) [Example 1243] and give its measured pIC50.
> 7.30

Look up pIC50 for this molecule: CC[C@H](CC(=O)O)c1ccc(N(CC)C2CCOCC2)c(Nc2ccc(OCC(F)(F)F)cc2)c1 (single isomer, unassigned)
> 8.30

May I ask what pIC50 has been recorded for COCC(CC(=O)O)c1cc(F)c(N(CC(C)C)CC(C)C)c(NC(=O)Nc2ccc(OC(F)(F)F)cc2)c1 (single isomer, unassigned) ?
> 7.30

What value of pIC50 has been recorded for this entry: COc1ncc(Nc2cc(C(C)CC(=O)O)ccc2N2CCC[C@H]2C(C)(C)O)cn1 (single isomer, unassigned)
< 7.30

pIC50 for Cc1ccc(CC(=O)Nc2cc(C(CC(=O)O)C3CC3)ccc2N(CC(C)C)C2CCCCC2)cc1 (single isomer, unassigned) ?
> 8.30

Quick check: pIC50 of CCC(CC(=O)O)c1ccc(N(CC(C)C)C2CCCCC2)c(Nc2ccc3c(c2)OC(F)(F)O3)c1 (single isomer, unassigned) [Example 315] ?
< 7.30

What value of measured pIC50 is listed for CCC(CC(=O)O)c1cc(F)c(N(CC(C)C)CC(C)C)c(NC(=O)Cc2ccc(F)cc2F)c1 (single isomer, unassigned) [Example 1093 E1] ?
> 8.30

Could you share which pIC50 value was measured for CCC(CC(=O)O)c1ccc(N(CC)C2CCOCC2)c(NC(=O)Nc2cnc(C)nc2)c1 (single isomer, unassigned) [Example 488 Enantiomer 1] ?
< 7.30

Endpoint output: pIC50 of CC[C@H](CC(=O)O)c1ccc(N(CC)C2CCOCC2)c(Nc2cnc(OCC3CC3)nc2)c1 (single isomer, unassigned) . Value?
> 8.30

Consider the molecule shown here: COc1ncc(Nc2cc(C(C)(C)CC(=O)O)ccc2N2C[C@@H](C)O[C@@H](C)C2)cn1 What is its recorded pIC50?
< 7.30

For CC[C@@H](CC(=O)O)c1ccc(N(CC(C)(C)O)C2CCCCC2)c(Nc2ccc(OC(F)F)cc2)c1 (single isomer, unassigned) , what is its reported pIC50?
> 8.30

Please look up its pIC50: CC[C@H](CC(=O)O)c1ccc(N(CC)C2CCOCC2)c(NC(=O)Nc2ccc(Cl)nc2)c1 (single isomer, unassigned)
> 7.30

Which pIC50 is listed for CCCN(c1ccc(C(CC)CC(=O)O)cc1Nc1ncc(CC)cn1)C1CCOCC1 (racemic) ?
> 7.30

Could you tell me which pIC50 is on file for COCC(CC(=O)O)c1ccc(N(CC(C)C)CC(C)C)c(NC(=O)Nc2ccc(C)cc2)c1 (single isomer, unassigned) [993-1] ?
> 7.30

Please give the measured pIC50 for this molecule: CC(C)CN(CC(C)C)c1ccc(C(CC(=O)O)c2ccccc2)cc1NC(=O)Nc1ccc(OC(F)(F)F)cc1 (racemic)
< 7.30

Name the recorded pIC50 for CCOc1ncc(Nc2cc(C(C)(C)CC(=O)O)ccc2N(CC(C)C)CC(C)C)cn1 .
> 7.30

All figures here come from patent US9790169B2.
